All values here come from paper PMC12586182.

# target_entity: JAK3 (Homo sapiens, UniProt P52333)
# Construct: purchased Carna Biosciences
# Sequence (P52333 whole entry): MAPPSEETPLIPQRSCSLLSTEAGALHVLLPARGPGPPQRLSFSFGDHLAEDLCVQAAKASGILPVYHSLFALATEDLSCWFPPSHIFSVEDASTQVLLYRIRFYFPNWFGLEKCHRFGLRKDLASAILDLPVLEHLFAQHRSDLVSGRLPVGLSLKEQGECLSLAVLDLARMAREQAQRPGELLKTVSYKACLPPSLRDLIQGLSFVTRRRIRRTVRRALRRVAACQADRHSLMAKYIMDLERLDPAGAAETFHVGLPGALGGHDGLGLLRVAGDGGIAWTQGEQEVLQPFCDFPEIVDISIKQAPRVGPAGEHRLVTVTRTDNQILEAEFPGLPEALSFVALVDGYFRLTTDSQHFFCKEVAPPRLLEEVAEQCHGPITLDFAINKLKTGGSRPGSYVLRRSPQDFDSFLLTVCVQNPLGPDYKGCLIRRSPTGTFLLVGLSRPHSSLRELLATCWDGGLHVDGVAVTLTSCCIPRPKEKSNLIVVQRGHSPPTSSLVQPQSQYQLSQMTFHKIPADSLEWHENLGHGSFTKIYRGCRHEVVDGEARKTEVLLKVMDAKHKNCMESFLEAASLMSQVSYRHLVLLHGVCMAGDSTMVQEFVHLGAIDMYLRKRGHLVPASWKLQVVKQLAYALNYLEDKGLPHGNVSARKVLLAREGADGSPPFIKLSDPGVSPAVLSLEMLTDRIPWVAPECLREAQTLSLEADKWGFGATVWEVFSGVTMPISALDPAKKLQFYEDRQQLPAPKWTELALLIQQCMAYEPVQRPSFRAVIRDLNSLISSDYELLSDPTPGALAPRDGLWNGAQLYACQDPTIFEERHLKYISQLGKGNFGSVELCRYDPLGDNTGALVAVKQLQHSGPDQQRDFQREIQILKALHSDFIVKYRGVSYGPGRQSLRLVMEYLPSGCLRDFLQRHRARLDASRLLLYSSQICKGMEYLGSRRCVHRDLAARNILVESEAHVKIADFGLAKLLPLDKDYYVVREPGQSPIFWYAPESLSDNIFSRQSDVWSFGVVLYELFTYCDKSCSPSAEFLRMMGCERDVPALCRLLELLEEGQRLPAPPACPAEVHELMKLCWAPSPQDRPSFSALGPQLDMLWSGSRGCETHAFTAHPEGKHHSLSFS
# experiment: Kinase panel profiling at 1 µmol/L (mobility shift assay, Carna)
# Type: biochemical
# conditions_used: 1 µmol/L of BTK inhibitor
Where Percentage inhibition of kinase enzyme activity equals or exceeds 10%, the correct label is 1.0; where it does not, the label is 0.0.

Examples with answers:
Input: Given "CC#CC(=O)N1CCC[C@H]1c1nc(-c2ccc(C(=O)Nc3ccccn3)cc2)c2c(N)nccn12" , state whether its Percentage inhibition of kinase enzyme activity is at least 10%.
Output: 0.0

Input: Also, "O=C(c1ccc(Oc2ccccc2)cc1Cl)c1c[nH]c2ncnc(N[C@@H]3CC[C@@H](CO)OC3)c12" please.
Output: 1.0

Input: Also "COc1ccc(F)cc1C(=O)NCc1ccc(-c2nn([C@@H](C)C(F)(F)F)c(N)c2C(N)=O)cc1" ?
Output: 0.0

Input: Try the compound "C=CC(=O)N1CCC([C@@H]2CCNc3c(C(N)=O)c(-c4ccc(Oc5ccccc5)cc4)nn32)CC1"
Output: 1.0

Next item in the queue.
Input: Determine whether measured Percentage inhibition of kinase enzyme activity meets or exceeds 10% for "C=CC(=O)N1CCC[C@@H](n2nc(-c3ccc(Oc4ccccc4)cc3)c3c(N)ncnc32)C1"
Output: 1.0

###

# target_entity: MAPKAPK2 (Homo sapiens)
# Construct: purchased Carna Biosciences
# Sequence (P49137 whole entry): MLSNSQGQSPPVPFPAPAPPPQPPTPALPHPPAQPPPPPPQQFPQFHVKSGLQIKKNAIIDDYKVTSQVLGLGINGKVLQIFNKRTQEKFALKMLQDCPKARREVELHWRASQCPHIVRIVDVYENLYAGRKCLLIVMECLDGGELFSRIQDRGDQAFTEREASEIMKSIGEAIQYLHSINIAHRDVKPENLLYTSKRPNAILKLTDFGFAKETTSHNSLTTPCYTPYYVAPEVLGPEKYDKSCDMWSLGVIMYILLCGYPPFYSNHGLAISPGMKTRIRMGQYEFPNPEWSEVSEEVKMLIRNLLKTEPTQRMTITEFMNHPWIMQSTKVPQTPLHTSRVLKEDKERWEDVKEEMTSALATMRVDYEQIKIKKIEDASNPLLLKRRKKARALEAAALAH
# experiment: Kinase panel profiling at 1 µmol/L (mobility shift assay, Carna)
# Type: biochemical
# conditions_used: 1 µmol/L of BTK inhibitor
readout: Percentage inhibition of kinase enzyme activity (%)
Provide the reading as a plain figure in %.

Here are 3 compounds together with their reported answers.
Input: Param item = "O=C(c1ccc(Oc2ccccc2)cc1Cl)c1c[nH]c2ncnc(N[C@@H]3CC[C@@H](CO)OC3)c12" ; retrieve measured Percentage inhibition of kinase enzyme activity.
Output: -7.90

Input: Same question for "CC#CC(=O)N1CCC[C@H]1c1nc(-c2ccc(C(=O)Nc3ccccn3)cc2)c2c(N)nccn12" please.
Output: -20.51

Input: Continue with "COc1ccc(F)cc1C(=O)NCc1ccc(-c2nn([C@@H](C)C(F)(F)F)c(N)c2C(N)=O)cc1"
Output: -13.00

Next up:
Input: Query: Percentage inhibition of kinase enzyme activity; subject: "C=CC(=O)N1CCC[C@@H](n2nc(-c3ccc(Oc4ccccc4)cc3)c3c(N)ncnc32)C1"
Output: -12.65

###

Overview of reported Percentage inhibition of kinase enzyme activity across a group of molecules:
# target_entity: PAK6 (Homo sapiens, UniProt Q9NQU5)
# Construct: purchased Carna Biosciences
# Sequence (Q9NQU5 whole entry): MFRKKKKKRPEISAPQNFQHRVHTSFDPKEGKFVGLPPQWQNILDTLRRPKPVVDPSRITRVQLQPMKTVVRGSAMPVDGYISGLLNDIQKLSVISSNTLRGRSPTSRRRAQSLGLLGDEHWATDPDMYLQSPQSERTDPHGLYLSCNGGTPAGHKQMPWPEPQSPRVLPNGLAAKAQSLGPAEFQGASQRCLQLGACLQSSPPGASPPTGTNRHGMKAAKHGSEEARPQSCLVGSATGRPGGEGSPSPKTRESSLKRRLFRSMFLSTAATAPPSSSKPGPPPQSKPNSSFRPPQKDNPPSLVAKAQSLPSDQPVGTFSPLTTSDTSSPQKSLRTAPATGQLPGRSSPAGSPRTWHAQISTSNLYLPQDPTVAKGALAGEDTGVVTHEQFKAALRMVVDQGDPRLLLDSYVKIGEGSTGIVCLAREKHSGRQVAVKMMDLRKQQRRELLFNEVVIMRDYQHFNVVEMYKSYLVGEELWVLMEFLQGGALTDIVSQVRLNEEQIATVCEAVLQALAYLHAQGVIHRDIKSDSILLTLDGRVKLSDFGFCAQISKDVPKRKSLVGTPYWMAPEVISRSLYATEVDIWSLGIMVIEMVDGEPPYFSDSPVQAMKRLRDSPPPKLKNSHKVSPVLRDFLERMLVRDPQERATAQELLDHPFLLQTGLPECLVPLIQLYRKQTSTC
# experiment: Kinase panel profiling at 1 µmol/L (mobility shift assay, Carna)
# Assay type: biochemical
# conditions_used: 1 µmol/L of BTK inhibitor
Remember to follow the number with its unit.

Input: Form field: reported Percentage inhibition of kinase enzyme activity of "COc1ccc(F)cc1C(=O)NCc1ccc(-c2nn([C@@H](C)C(F)(F)F)c(N)c2C(N)=O)cc1"
Output: 4.12%

Input: Entry to check: "O=C(c1ccc(Oc2ccccc2)cc1Cl)c1c[nH]c2ncnc(N[C@@H]3CC[C@@H](CO)OC3)c12"
Output: 64.72%

Input: // repeat for "CC#CC(=O)N1CCC[C@H]1c1nc(-c2ccc(C(=O)Nc3ccccn3)cc2)c2c(N)nccn12" and report
Output: -8.74%

Input: Now the molecule "C=CC(=O)N1CCC[C@@H](n2nc(-c3ccc(Oc4ccccc4)cc3)c3c(N)ncnc32)C1"
Output: 8.60%
